B1: Proto-oncogene vav, residues 782 to 842; numbered along this chain, P15498 (parent)
chain: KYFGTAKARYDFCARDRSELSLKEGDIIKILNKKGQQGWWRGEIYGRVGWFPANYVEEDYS

# Variants of: B1
# PROTOCOL_NOTES: abundance fitness (aPCA) (normalised: wild type 0, dead -1); higher = more abundant; growth selection in yeast, the domain comes from the species named
# MEASUREMENT_CONDITIONS: Homo sapiens
Kind request: treat -0.3 as inclusive, so abundance fitness at -0.3 or higher is true, anything lower is false.

{"VARIANT_DESCRIPTION": "G46F", "ASSIGNED_CLASS": "false"}

Has K23Q a recorded abundance fitness greater than or equal to -0.3?
true

API: above_or_equal(metric=abundance fitness, cutoff=-0.3) for item I27M
true

Check this variant for abundance fitness at or above -0.3: R17P
true

Reported abundance fitness at or above -0.3? F51W
false
